# Tested on: mRNA expressed from the genes (A) to (D) in rat liver
# test.name: Behavior of genes (mRNA expression level, oligo-DNA microarray) in rat liver after 28-day oral administration
# Format: in vivo
# settings: Gene No. 3929, Rn.4620, group (C)
quantity: Behavior of gene caused by administration of chemical substance

[
  {
    "compound": "O=CCCCC=O [TS081, Glutaraldehyde]",
    "reported.result": "−"
  },
  {
    "compound": "O=[N+]([O-])c1ccc2ccc3cccc4ccc1c2c34 [TS064, 1-Nitropyrene]",
    "reported.result": "−"
  },
  {
    "compound": "C=CCc1ccc(OC)c(OC)c1 [TS086, Methyleugenol]",
    "reported.result": "−"
  },
  {
    "compound": "CC(=O)Nc1cccc2c1-c1ccccc1C2 [TS061, 4-Acetylaminofluorene]",
    "reported.result": "−"
  },
  {
    "compound": "Cc1ccccc1[N+](=O)[O-] [TS087, o-Nitrotoluene]",
    "reported.result": "−"
  },
  {
    "compound": "Nc1ccc(N=Nc2ccccc2)cc1 [TS075, 4-Aminoazobenzene]",
    "reported.result": "+"
  }
]

====

# Tested on: mRNA expressed from the genes (A) to (D) in rat liver
# test.name: Behavior of genes (mRNA expression level, oligo-DNA microarray) in rat liver after 28-day oral administration
# Type: in vivo
# settings: gene group (C); Unigene No. Rn.23969; mRNA vs vehicle control group
quantity: Behavior of gene caused by administration of chemical substance, Gene No. 2494

[
  {
    "compound": "O=[N+]([O-])c1cc[n+]([O-])c2ccccc12 [TS049, 4-Nitroquinoline-1-oxide]",
    "reported.result": "−"
  },
  {
    "compound": "ClC1=C(Cl)C2(Cl)C3C4C=CC(C4)C3C1(Cl)C2(Cl)Cl (stereo not drawn)",
    "reported.result": "+"
  },
  {
    "compound": "ClC(Cl)C(Cl)(Cl)Cl",
    "reported.result": "+"
  },
  {
    "compound": "c1ccc2c(c1)cc1ccc3cccc4ccc2c1c34 [TS063, Benzo[a]pyrene]",
    "reported.result": "−"
  },
  {
    "compound": "CCN(N=O)C(N)=O",
    "reported.result": "−"
  },
  {
    "compound": "C#C[C@]1(O)CC[C@H]2[C@@H]3CCc4cc(O)ccc4[C@H]3CC[C@@]21C",
    "reported.result": "+"
  },
  {
    "compound": "c1ccc2cc3c(ccc4ccccc43)cc2c1 [TS046, Benz[a]anthracene]",
    "reported.result": "−"
  },
  {
    "compound": "Clc1ccc(Cl)cc1",
    "reported.result": "−"
  },
  {
    "compound": "ClC(Cl)=C(Cl)Cl",
    "reported.result": "−"
  }
]

====

# Test system: mRNA expressed from the genes (A) to (D) in rat liver
# test.name: Behavior of genes (mRNA expression level, oligo-DNA microarray) in rat liver after 28-day oral administration
# Type: in vivo
# settings: gene group (C), Unigene No. Rn.119024
# Experimental: A test solution was prepared by dissolving each of the carcinogens and the non-carcinogens shown in Tables 2 to 6 in the corresponding solvent shown in Tables 2 to 6. […] The case where the expression level of mRNA in the carcinogen administration group or the non-carcinogen administration group is 1.5 times or more or 1/1.5 or less of the expression level of the corresponding mRNA expressed in the control group was determined to be significant. […]
quantity: Behavior of gene caused by administration of chemical substance, Gene No. 4095

[
  {
    "molecule": "O=c1c(O)c(-c2ccc(O)c(O)c2)oc2cc(O)cc(O)c12",
    "reported.result": "−"
  },
  {
    "molecule": "ClC(Cl)(Cl)Cl [TS003, Carbon tetrachloride]",
    "reported.result": "−"
  },
  {
    "molecule": "Cl.ClCc1ccccn1 [TS033, 2-Chloromethylpyridine HCl]",
    "reported.result": "−"
  },
  {
    "molecule": "Cl.Cl.Nc1ccc(N)cc1 [TS059, p-Phenylenediamine 2HCl]",
    "reported.result": "+"
  },
  {
    "molecule": "IC(I)I [TS039, Iodoform]",
    "reported.result": "−"
  },
  {
    "molecule": "Cc1ccc(N)cc1Cl",
    "reported.result": "+"
  },
  {
    "molecule": "O=[N+]([O-])c1cccc2ccccc12",
    "reported.result": "+"
  },
  {
    "molecule": "CC(=O)Oc1ccccc1C(=O)O",
    "reported.result": "−"
  },
  {
    "molecule": "Clc1ccc(C(c2ccc(Cl)cc2)C(Cl)(Cl)Cl)cc1",
    "reported.result": "+"
  },
  {
    "molecule": "Nc1ccc([N+](=O)[O-])cc1N",
    "reported.result": "−"
  },
  {
    "molecule": "Cc1cc(N)ccc1N.O=S(=O)(O)O",
    "reported.result": "−"
  },
  {
    "molecule": "O=C(c1ccccc1)C(O)c1ccccc1 (centres unmarked)",
    "reported.result": "+"
  },
  {
    "molecule": "C[C@H](CCC(=O)O)[C@H]1CC[C@H]2[C@@H]3CC[C@@H]4C[C@H](O)CC[C@]4(C)[C@H]3CC[C@]12C",
    "reported.result": "−"
  },
  {
    "molecule": "CC(=O)Nc1ccc(O)cc1",
    "reported.result": "−"
  },
  {
    "molecule": "CC(O)CCl (centres unmarked)",
    "reported.result": "−"
  },
  {
    "molecule": "O=C([O-])c1ccccc1.[Na+] [TS084, Sodium benzoate]",
    "reported.result": "−"
  },
  {
    "molecule": "CCC[N+](=O)[O-]",
    "reported.result": "+"
  },
  {
    "molecule": "NC(=O)c1ccccc1C(N)=O [TS073, Phthalamide]",
    "reported.result": "−"
  },
  {
    "molecule": "COc1ccc2c(c1)c(CC(=O)O)c(C)n2C(=O)c1ccc(Cl)cc1",
    "reported.result": "−"
  },
  {
    "molecule": "Nc1ccc(N)c(Cl)c1.O=S(=O)(O)O",
    "reported.result": "−"
  }
]

====

# Test system: mRNA expressed from the genes (A) to (D) in rat liver
# test.name: Behavior of genes (mRNA expression level, oligo-DNA microarray) in rat liver after 28-day oral administration
# Type: in vivo
# settings: gene group (C), Unigene No. Rn.201760
quantity: Behavior of gene caused by administration of chemical substance, Gene No. 813

[
  {
    "molecule": "COc1ccc2c(c1)c(CC(=O)O)c(C)n2C(=O)c1ccc(Cl)cc1",
    "reported.result": "−"
  },
  {
    "molecule": "CCC[N+](=O)[O-]",
    "reported.result": "−"
  },
  {
    "molecule": "CC(=O)Nc1ccc(O)cc1",
    "reported.result": "−"
  },
  {
    "molecule": "Cc1ccc(N)cc1Cl",
    "reported.result": "+"
  },
  {
    "molecule": "O=C(c1ccccc1)C(O)c1ccccc1 (centres unmarked)",
    "reported.result": "−"
  },
  {
    "molecule": "CC(=O)Oc1ccccc1C(=O)O",
    "reported.result": "−"
  },
  {
    "molecule": "C[C@H](CCC(=O)O)[C@H]1CC[C@H]2[C@@H]3CC[C@@H]4C[C@H](O)CC[C@]4(C)[C@H]3CC[C@]12C",
    "reported.result": "−"
  },
  {
    "molecule": "O=c1c(O)c(-c2ccc(O)c(O)c2)oc2cc(O)cc(O)c12",
    "reported.result": "−"
  },
  {
    "molecule": "Cc1cc(N)ccc1N.O=S(=O)(O)O",
    "reported.result": "−"
  },
  {
    "molecule": "Cl.Cl.Nc1ccc(N)cc1 [TS059, p-Phenylenediamine 2HCl]",
    "reported.result": "−"
  },
  {
    "molecule": "O=[N+]([O-])c1cccc2ccccc12",
    "reported.result": "+"
  },
  {
    "molecule": "Nc1cc([N+](=O)[O-])ccc1C(=O)O",
    "reported.result": "−"
  },
  {
    "molecule": "ClC1=C(Cl)[C@]2(Cl)[C@@H]3[C@@H]4C[C@@H]([C@H]5O[C@@H]45)[C@@H]3[C@@]1(Cl)C2(Cl)Cl",
    "reported.result": "−"
  },
  {
    "molecule": "Clc1ccc(C(c2ccc(Cl)cc2)C(Cl)(Cl)Cl)cc1",
    "reported.result": "−"
  },
  {
    "molecule": "Nc1ccc(N)c(Cl)c1.O=S(=O)(O)O",
    "reported.result": "−"
  },
  {
    "molecule": "O=C1CCCCCN1",
    "reported.result": "−"
  },
  {
    "molecule": "CC1CCC(C(C)C)C(O)C1 (racemic)",
    "reported.result": "−"
  },
  {
    "molecule": "Nc1ccc([N+](=O)[O-])cc1N",
    "reported.result": "+"
  },
  {
    "molecule": "ClC(Cl)(Cl)Cl [TS003, Carbon tetrachloride]",
    "reported.result": "−"
  },
  {
    "molecule": "O=C1O[C@H]([C@@H](O)CO)C(O)=C1O",
    "reported.result": "−"
  }
]
